Items are presented alongside their recorded IC50.
system: Hela; assay: MTT cytotoxic activity assay, Hela; type: cell-based, human; details: Homo sapiens, HeLa; MTT, 48 h

Molecule | Bound type | IC50 [µM]
CC(C)(C)OC(=O)NC(Cc1ccccc1)C(=O)Oc1ccc(/C=C/C(=O)c2ccc(O)cc2O)cc1 (stereo not drawn) [Compound 21] | = | 66.5
O=C(/C=C/c1ccc(O)cc1)c1ccc(O)cc1O [ISL, Isoliquiritigenin, reference compound] | = | 126
CC(C)(C)OC(=O)NC(CCc1ccccc1)C(=O)Oc1ccc(C(=O)/C=C/c2ccc(OC(=O)[C@H](CCc3ccccc3)NC(=O)OC(C)(C)C)cc2)c(O)c1 (stereo partly drawn) [Compound 12] | > | 200
CC(C)(C)OC(=O)NC(C(=O)Oc1ccc(/C=C/C(=O)c2ccc(OC(=O)C(NC(=O)OC(C)(C)C)C3CCCC3)cc2O)cc1)C1CCCC1 (stereo not drawn) [Compound 6] | > | 200
CC(C)(C)OC(=O)NC(C(=O)Oc1ccc(/C=C/C(=O)c2ccc(OC(=O)C(NC(=O)OC(C)(C)C)c3ccccc3)cc2O)cc1)c1ccccc1 (stereo not drawn) [Compound 18] | > | 200
CC(C)(C)OC(=O)N[C@@H](Cc1ccccc1)C(=O)Oc1ccc(C(=O)/C=C/c2ccc(OC(=O)[C@@H](Cc3ccccc3)NC(=O)OC(C)(C)C)cc2)c(O)c1 [Compound 20] | > | 200
CC(C)(C)OC(=O)N[C@@H](Cc1ccccc1Br)C(=O)Oc1ccc(C(=O)/C=C/c2ccc(OC(=O)[C@@H](Cc3ccccc3Br)NC(=O)OC(C)(C)C)cc2)c(O)c1 [Compound 14] | > | 200
CCC(C)CC(NC(=O)OC(C)(C)C)C(=O)Oc1ccc(/C=C/C(=O)c2ccc(OC(=O)C(CC(C)CC)NC(=O)OC(C)(C)C)cc2O)cc1 (stereo not drawn) [Compound 2] | > | 200
CC(C)[C@H](NC(=O)OC(C)(C)C)C(=O)Oc1ccc(/C=C/C(=O)c2ccc(OC(=O)[C@@H](NC(=O)OC(C)(C)C)C(C)C)cc2O)cc1 [Compound 3] | > | 200
CC(C)(C)OC(=O)N[C@H](Cc1ccccc1Br)C(=O)Oc1ccc(/C=C/C(=O)c2ccc(O)cc2O)cc1 [Compound 15] | = | 27.4
CC(C)(C)OC(=O)NC(C(=O)Oc1ccc(/C=C/C(=O)c2ccc(OC(=O)C(NC(=O)OC(C)(C)C)C3CCCCC3)cc2O)cc1)C1CCCCC1 (stereo not drawn) [Compound 8] | > | 200
CC(NC(=O)OC(C)(C)C)C(=O)Oc1ccc(C=CC(=O)c2ccc(O)cc2O)cc1 (stereo not drawn) [Compound 11] | = | 99.9
C[C@H](NC(=O)OC(C)(C)C)C(=O)Oc1ccc(C(=O)/C=C/c2ccc(OC(=O)[C@@H](C)NC(=O)OC(C)(C)C)cc2)c(O)c1 [Compound 10] | > | 200
CC(C)(C)OC(=O)N[C@H](Cc1ccccc1Cl)C(=O)Oc1ccc(/C=C/C(=O)c2ccc(O)cc2O)cc1 [Compound 17] | = | 30.4
CC(C)C[C@H](NC(=O)OC(C)(C)C)C(=O)Oc1ccc(/C=C/C(=O)c2ccc(OC(=O)[C@H](CC(C)C)NC(=O)OC(C)(C)C)cc2O)cc1 [Compound 1] | > | 200
CC(C)(C)OC(=O)N1CCCC1C(=O)Oc1ccc(/C=C/C(=O)c2ccc(OC(=O)[C@@H]3CCCN3C(=O)OC(C)(C)C)cc2O)cc1 (stereo partly drawn) [Compound 4] | > | 200
CC(C)(C)OC(=O)N[C@@H](CCc1ccccc1)C(=O)Oc1ccc(/C=C/C(=O)c2ccc(O)cc2O)cc1 [Compound 13] | = | 29.2
Cc1ccc(C[C@@H](NC(=O)OC(C)(C)C)C(=O)Oc2ccc(/C=C/C(=O)c3ccc(O)cc3O)cc2)cc1 [Compound 23] | = | 72.4
Cc1ccc(C[C@H](NC(=O)OC(C)(C)C)C(=O)Oc2ccc(C(=O)/C=C/c3ccc(OC(=O)[C@@H](Cc4ccc(C)cc4)NC(=O)OC(C)(C)C)cc3)c(O)c2)cc1 [Compound 22] | > | 200
CC(C)(C)OC(=O)NC(C(=O)Oc1ccc(/C=C/C(=O)c2ccc(O)cc2O)cc1)c1ccccc1 (stereo not drawn) [Compound 19] | = | 74.9
CC(C)(C)OC(=O)N[C@@H](Cc1ccccc1Cl)C(=O)Oc1ccc(C(=O)/C=C/c2ccc(OC(=O)[C@@H](Cc3ccccc3Cl)NC(=O)OC(C)(C)C)cc2)c(O)c1 [Compound 16] | > | 200
CN(CC(=O)Oc1ccc(/C=C/C(=O)c2ccc(OC(=O)CN(C)C(=O)OC(C)(C)C)cc2O)cc1)C(=O)OC(C)(C)C [Compound 5] | > | 200
CC(C)(C)OC(=O)NC(C(=O)Oc1ccc(/C=C/C(=O)c2ccc(O)cc2O)cc1)C1CCCCC1 (stereo not drawn) [Compound 9] | = | 14.4
CC(C)(C)OC(=O)NC(C(=O)Oc1ccc(/C=C/C(=O)c2ccc(O)cc2O)cc1)C1CCCC1 (stereo not drawn) [Compound 7] | = | 28.7
